# maps each entry to its melting point

Record excerpt, results attached:
molecule: CCCCCN1C(=Cc2sc3ccccc3[n+]2CCCCC)Sc2ccccc21.[I-] [Dye 10]
readout kind: melting point
reported value: 164 to 166 °C
--
molecule: COC(=O)CN1C(=Cc2sc3ccccc3[n+]2CC(=O)OC)Sc2ccccc21.[Br-] [Dye 9]
readout kind: melting point
reported value: 226 to 227 °C
--
molecule: CN1C(=Cc2ccc3ccccc3[n+]2C)C=Cc2ccccc21.[I-] [Dye 13]
readout kind: melting point
reported value: 240 to 241 °C
--
molecule: CCCCCCCCCCN1C(=Cc2sc3ccccc3[n+]2CCCCCCCCCC)Sc2ccccc21.[I-] [Dye 11]
readout kind: melting point
reported value: 232 to 233 °C
--
molecule: c1ccc2sc(Cc3nc4ccccc4s3)nc2c1 [bisbenzothiazole 1, bis(benzo[d]thiazol-2-yl)methane]
readout kind: melting point
reported value: 97 to 98 °C

Turning to the following molecule.
query: Which measured melting point value corresponds to CCN1C(=Cc2sc3ccccc3[n+]2CC)Sc2ccccc21.[O-][Cl+3]([O-])([O-])[O-] [Dye 7] ?
result: 296 to 297 °C

All values here come from paper PMC9503608.
